Data origin, for the record: patent US11214803B2

# Tested on: Yap1 mRNA
# experimental_details: Dose-dependent inhibition of human Yap1 in SNU-449 cells (Example 9, RTS36584)
# Type: cell-based
# conditions: 2000.00 nM, free uptake, approximately 48 hours
Strand notation (5' to 3'): a small letter for the sugar, then the base; units joined by * are phosphorothioate-linked, units joined directly phosphodiester-linked; [ ] holds rarer units or linkages, { } end groups; capitals alone tell only the bases. e = 2'-O-(2-methoxyethyl) (MOE); k = constrained ethyl (cEt); [5mC] = 5-methylcytosine; d = 2'-deoxy (DNA); m = 2'-O-methyl
Note to self: values exactly at 10 % UTC are Met. So % UTC (Yap1 mRNA) at or above 10 % UTC is Met, below is Not met.

Consider the worked cases shown below.
Test whether the substance 1200806 (kT*kG*kA*dG*dG*mU*dA*dT*dA*dA*d[5mC]*dT*dG*kG*kG*k[5mC]; antisense) [compound 1200806] records % UTC (Yap1 mRNA) of 10 % UTC or higher. Met

Entry to check: 958590 (kA*kG*kG*dT*dA*dT*dA*dA*d[5mC]*dT*dG*dG*dG*k[5mC]*kA*kA) [compound 958590] Met

Entry to check: 1197313 (kA*kG*kT*dG*mU*dA*dT*dG*dT*d[5mC]*dA*dG*dA*kA*kG*kA; antisense) [compound 1197313] Not met

Entry to check: 1198918 (kG*k[5mC]*dA*d[5mC]*dT*dT*dT*dT*dA*d[5mC]*dA*kT*dT*kA*dG*kG) [compound 1198918] Not met

Entry to check: 1197214 (kA*kG*kT*dG*dT*dA*dT*dG*dT*d[5mC]*dA*dG*dA*kA*kG*kA; antisense) [compound 1197214] Not met

Entry to check: 1076187 (kG*kA*kT*dT*dT*dA*dG*dG*dA*dT*dG*d[5mC]*dA*kT*kG*kG; antisense) [compound 1076187] Met

***
Test whether the substance 1198642 (kT*kA*dT*dT*dA*dG*dA*dG*dT*dA*dT*dG*kT*eG*kG*e[5mC]; antisense) [compound 1198642] records % UTC (Yap1 mRNA) of 10 % UTC or higher. Not met

---

# experimental_details: Tolerability in Balb/c mice, plasma chemistry markers (Example 11)
# Type: in vivo
# conditions: 50 mg/kg subcutaneously twice a week for four weeks
Strand notation (5' to 3'): a small letter for the sugar, then the base; units joined by * are phosphorothioate-linked, units joined directly phosphodiester-linked; [ ] holds rarer units or linkages, { } end groups; capitals alone tell only the bases. k = constrained ethyl (cEt); [5mC] = 5-methylcytosine; d = 2'-deoxy (DNA)
Note to self: values exactly at 1000 U/L are y. So ALT at or above 1000 U/L is y, below is n.

Consider the worked cases shown below.
Test whether the substance 715487 (kA*kT*kT*dA*d[5mC]*dT*dT*d[5mC]*dA*dT*dA*dG*d[5mC]*kT*kT*kA) [compound 715487] records ALT of 1000 U/L or higher. n

Entry to check: 715473 (kT*k[5mC]*kT*dT*dT*dA*dT*d[5mC]*dT*dA*dG*d[5mC]*dT*kT*kG*kG; antisense) [compound 715473] y

***
Test whether the substance 716513 (antisense kA*kA*kT*d[5mC]*dT*dT*dA*dA*dT*d[5mC]*dT*dG*dT*kG*kG*k[5mC]) [compound 716513] records ALT of 1000 U/L or higher. n

Entry to check: 716480 (antisense kG*k[5mC]*kA*dA*dG*dT*d[5mC]*dT*dT*dG*dT*dA*dA*kG*kT*kA) [compound 716480] y

Entry to check: 716481 (antisense kT*k[5mC]*kA*dG*d[5mC]*dA*dT*dA*dG*dA*dA*dG*dT*kA*kG*kG) [compound 716481] y

Entry to check: 715415 (k[5mC]*kG*kA*dA*d[5mC]*dA*dT*dG*d[5mC]*dT*dG*dT*dG*kG*kA*kG; antisense) [compound 715415] y

Entry to check: 716424 (antisense kG*k[5mC]*kA*dA*dT*dG*dG*dA*d[5mC]*dA*dA*dG*dG*kA*kA*kG) [compound 716424] y
